target system: T1, tail-chimeric peptide IhfA3-IhfB2NTHI (nontypeable Haemophilus influenzae …)
T1 construct: also called IHF(NTHI) tail chimeric peptide; IHFNTHI tail chimeric peptide
T1 peptide: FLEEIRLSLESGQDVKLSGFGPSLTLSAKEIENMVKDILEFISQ
assay protocol: SPR Biacore 3000, peptide immobilized, HuMab as analyte
property measured: kon (M⁻¹ s⁻¹)

{"columns": ["binder", "property measured", "unit of measurement", "quantitative result"],
 "data": [
  ["humanized anti-tail monoclonal antibody, heavy chain SEQ ID NO: 5 and light chain SEQ ID NO: 10 (antibody, V domains shown, also called H10214 (11E7.C7 Humanized HC2) + L10213 (11E7.C7 Humanized LC1)) VH: EVQLVESGGGLVKPGGSLRLSCAASGFTFSRYGMSWVRQAPGKGLEWVSTISSGGSYTYYTDSVKGRFTISRDNAKNSLYLQMNSLRAEDTAVYYCERHGGDGYWYFDVWGQGTMVTVSS VL: DIQMTQSPSSLSASVGDRVTITCRASQDISNYLNWYQQKPGKAVKLLIYYTSRLHSGVPSRFSGSGSGTDYTLTISSLQPEDFATYFCQQGNPLRTFGGGTKVEIKR", "kon", "M⁻¹ s⁻¹", 130000]
]}
